Values compiled from patent US20260317269A1.

experimental.protocol: CaOx crystallization inhibition assay, remaining free oxalate in solution measured with EnzyChrom oxalate assay kit (Assay B)
Assay type: biochemical
experimental.parameters: ratio to citrate (citrate = 1), from EC50 in the CaOx crystallization inhibition assay
result.type: Ratio

[
  {
    "compound": "O=C(O)C(=O)NCCCC[C@H](NC(=O)C(=O)O)C(=O)O [Compound 9, L-Lysine N^α,N^ε-dioxalate]",
    "measured.value": 10
  },
  {
    "compound": "O=C(O)C(=O)NCCCC[C@H](NC(=O)C(=O)O)C(=O)NCCCCCCNC(=O)[C@H](CCCCNC(=O)C(=O)O)NC(=O)C(=O)O [Compound 19f]",
    "measured.value": 719
  },
  {
    "compound": "O=C(O)CC(O)(CC(=O)O)C(=O)O [Citrate, reference compound]",
    "measured.value": 1
  },
  {
    "compound": "O=C(O)C(=O)NCCCC[C@H](NC(=O)C(=O)O)C(=O)NCCCCCNC(=O)[C@H](CCCCNC(=O)C(=O)O)NC(=O)C(=O)O [Compound 19e]",
    "measured.value": 185
  },
  {
    "compound": "O=C(O)C(=O)NCCNC(=O)C(=O)O [Compound 11b]",
    "measured.value": 5
  }
]
